Target: Solute carrier family 22 member 2 (Rattus norvegicus)
Sequence (Q9R0W2 whole entry): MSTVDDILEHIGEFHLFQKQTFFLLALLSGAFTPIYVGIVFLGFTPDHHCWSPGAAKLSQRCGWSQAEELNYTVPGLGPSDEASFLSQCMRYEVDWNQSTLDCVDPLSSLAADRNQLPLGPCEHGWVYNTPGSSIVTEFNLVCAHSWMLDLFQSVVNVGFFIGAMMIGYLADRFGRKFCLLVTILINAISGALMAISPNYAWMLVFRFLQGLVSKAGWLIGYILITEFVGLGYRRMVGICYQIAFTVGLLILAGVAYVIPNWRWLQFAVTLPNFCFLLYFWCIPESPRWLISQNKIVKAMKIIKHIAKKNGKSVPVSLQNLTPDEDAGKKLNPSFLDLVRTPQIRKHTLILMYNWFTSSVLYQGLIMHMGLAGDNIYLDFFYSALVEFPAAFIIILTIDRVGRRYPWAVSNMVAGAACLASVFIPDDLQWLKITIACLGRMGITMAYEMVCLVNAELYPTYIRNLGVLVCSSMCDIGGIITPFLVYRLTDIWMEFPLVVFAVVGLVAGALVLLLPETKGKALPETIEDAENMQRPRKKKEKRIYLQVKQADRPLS
Assay: TP_TRANSPORTER: inhibition of MPP+ uptake in OCT2-expressing HEK293 cells
pKi: −log10 of the molar value.
Listing: pKi of selected compounds
Measure: pKi

# Molecule, Measured target, Measure, Numeric result
records = [
    ("N=C(N)N", "Solute carrier family 22 member 2 (Rattus norvegicus)", "pKi", 3.55),
    ("NCCc1c[nH]cn1", "Solute carrier family 22 member 2 (Rattus norvegicus)", "pKi", 3.41),
]
